test system: Fusarium virguliforme (Fv); assay: Growth inhibition assay of fungal pathogens, Fv; assay type: cell-based; conditions: 48 h, read-out: Concentration at 90% Inhibition Fv, Fusarium virguliforme, growth inhibition at 48 hours vs 2% DMSO control
Recorded Endpoint: IC90 (µg/mL)
Your answer is read as µg/mL, so omit the unit and give the number.

Some compounds with recorded IC90:
* COc1ccc(F)cc1[C@@](O)(CCO)Cn1c(=O)n(C(C)(C)C(=O)NC(C)C)c(=O)c2c(C)c(-n3nccn3)sc21 | 2
* COc1ccc(F)cc1[C@H](Cn1c(=O)n(C(C)(C)C(=O)NC(C)C)c(=O)c2c(C)c(-n3nccn3)sc21)O[C@H]1CC[C@@H](O)CC1 | 0.4
* COc1ccccc1[C@H](Cn1c(=O)n(C(C)(C)C(=O)NC(C)C)c(=O)c2c(C)c(-n3nccn3)sc21)O[C@H]1CC[C@@H](O)CC1 | 0.4
* COc1ccc(F)cc1[C@H](Cn1c(=O)n([C@@H](C)C(=O)NC(C)C)c(=O)c2c(C)c(-n3nccn3)sc21)OCCO | 2
* COCCO[C@@H](Cn1c(=O)n([C@@H](C)C(=O)NC(C)C)c(=O)c2c(C)c(-n3nccn3)sc21)c1cc(F)ccc1OC | 0.4

# context switch: different compound, same IC90
Look up IC90 of COc1ccc(F)cc1[C@H](Cn1c(=O)n(C(C)(C)C(=O)NC(C)C)c(=O)c2c(C)c(-n3nccn3)sc21)OC[C@@H](C)O and report it.
0.4
